The values you see were collected from patent US20210395313A1.

Target: human PAC1 receptor (Homo sapiens, UniProt P41586)
Construct: SHSY-5Y (human neuroblastoma cell line) and RG-2 (rat glioma cell line) cells endogenously express human and rat PAC1 receptors, respectively; endogenous in cells; host or cells: SHSY-5Y human neuroblastoma cells
Sequence (P41586 21-468): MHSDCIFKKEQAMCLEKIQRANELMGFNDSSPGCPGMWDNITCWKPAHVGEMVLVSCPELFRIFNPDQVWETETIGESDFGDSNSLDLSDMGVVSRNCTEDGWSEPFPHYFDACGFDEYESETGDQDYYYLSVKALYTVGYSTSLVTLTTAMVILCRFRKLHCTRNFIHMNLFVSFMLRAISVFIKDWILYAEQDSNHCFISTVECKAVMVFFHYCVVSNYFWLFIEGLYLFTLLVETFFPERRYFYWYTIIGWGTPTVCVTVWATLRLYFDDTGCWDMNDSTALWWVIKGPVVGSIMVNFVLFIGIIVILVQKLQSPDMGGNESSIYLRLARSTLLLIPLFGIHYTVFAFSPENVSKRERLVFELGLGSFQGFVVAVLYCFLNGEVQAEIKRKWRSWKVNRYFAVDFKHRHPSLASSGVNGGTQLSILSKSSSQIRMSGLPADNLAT
Assay: LANCE Ultra cAMP accumulation antagonist assay in SHSY-5Y cells;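 also: inhibition of cAMP accumulation evoked by PAC1 agonist at its EC80 in SHSY-5Y cells endogenously expressing receptor, 30 min preincubation then 15 min agonist, TR-FRET readout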
Type: cell-based
pIC50: −log10 of the molar value. Bridges are numbered along the chain shown (N, C = ends). Where no end group is shown, it is not given here.
Measurement label: pIC50

Field: example entries. Status: answers known.
CDATCQFRKAIDDCQKQAHHSNVPGSVFKACLLQKKKEFKAG-NH2 (disulfide 1-5, 14-31) [compound 100] = 7.00 to 9.00
CDATCQFRKAIDDCAKQAHHSNVPGSVFKACMKQKKKEFKAG-NH2 (disulfide 1-5, 14-31) [SEQ ID NO 180] = 9.00 to 11.00
CDATCQFRKAIDDCDRQAHHSNVPGSVFKACMKQKKKEWKANN (disulfide 1-5, 14-31) [compound 154] = 9.00 to 11.00
CDATCQFRKAIDDCYYRSKHSNVPGSVFKACMKQKKKEFKAG-NH2 (disulfide 1-5, 14-31) [compound 43] = 9.00 to 11.00
CDATCQFRKAIDDCYYYAMHSNVPGSVWKACMKQKKKEFKAG-NH2 (disulfide 1-5, 14-31) [compound 150] = 9.00 to 11.00
CDATCQFRKAIDDCQKQAYHSNVPGNSVFKECMKQKKKEFK-NH2 (disulfide 1-5, 14-32) [compound 306] = 7.00 to 9.00
CDATCQFRKAIDDCVRQAYHSNVPGSVFKACMKQKKKEWKAGH (disulfide 1-5, 14-31) [compound 84] = 9.00 to 11.00
CDATCQFRKAIDDCYYRAWHSNVPGSVFKACMKQKKKEFKAG-NH2 (disulfide 1-5, 14-31) [compound 104] = 9.00 to 11.00

Ask | Data request, read-out pIC50, for CDATCQFRKAIDDCARQAHHSNVPGSVFKACMKQKKKEYKAGH (disulfide 1-5, 14-31) [compound 10]
Reply | 9.00 to 11.00

Ask | Suppose we examine the substance CDATCQFRKAIDDCYWIAMHSNVPGSVWKACMKQKKKEFKAG-NH2 (disulfide 1-5, 14-31) [compound 147] ; what pIC50 value has been reported?
Reply | 9.00 to 11.00

Ask | For the substance shown here, CDATCQFRKAIDDCQKQAHHSNVPGSVFKVCMKQKKKEFKAG-NH2 (disulfide 1-5, 14-31) [compound 211] , give the reported pIC50.
Reply | 7.00 to 9.00

Ask | Given the entry CDATCQFRKAIDDCARQAHHSNVPGSVFKACFKQKKKEWKAGH (disulfide 1-5, 14-31) [compound 39] , report its measured pIC50.
Reply | 9.00 to 11.00

Ask | Look up pIC50 for this substance: CDATCQFRKAIDDCYWQAIHANVPGSVWKACMKFRFNVWKAG-NH2 (disulfide 1-5, 14-31) [compound 54]
Reply | 7.00 to 9.00

Ask | What value of pIC50 has been reported for the following substance? CDATCQFRKAIDDCYYRSWHSNVPGSVFKACMKQKKKEFKAG (disulfide 1-5, 14-31) [compound 64]
Reply | 7.00 to 9.00
